Target: T1, human IL-18BP (human, UniProt O95998 31-194)
T1 construct: UniProt printed as 095998; also called hIL-18BP
T1 sequence: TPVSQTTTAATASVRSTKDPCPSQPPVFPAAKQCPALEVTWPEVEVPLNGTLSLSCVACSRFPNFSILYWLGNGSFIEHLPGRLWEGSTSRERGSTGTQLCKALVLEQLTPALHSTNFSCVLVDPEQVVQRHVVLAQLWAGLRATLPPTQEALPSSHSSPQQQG
Assay: BLI, apparent KD
pKd: −log10 of the molar value.
Classify as follows. Reported pKd greater than or equal to 9: condition met. Reported pKd below: condition not met.

Answered cases to consult:
SA301a HC-S54R (antibody, name in Kabat numbering, V domains shown, IgG1 kappa) VH: QVQLQESGPGLVKPSQTLSLTCTVSGYSITSDYNSHWIRQPPGKGLEWIGYIHYRGSTNYNPSLKSRVTISRDTSKNQFSLKLSSVTAADTAVYYCARNYGSIYVNYFDYWGQGTLVTVSS VL: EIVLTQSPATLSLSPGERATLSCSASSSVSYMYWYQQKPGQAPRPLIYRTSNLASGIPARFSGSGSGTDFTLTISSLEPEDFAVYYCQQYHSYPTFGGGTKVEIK :: condition not met
SA301a HC-I51V (antibody, name in Kabat numbering, V domains shown, IgG1 kappa) VH: QVQLQESGPGLVKPSQTLSLTCTVSGYSITSDYNSHWIRQPPGKGLEWIGYVHYSGSTNYNPSLKSRVTISRDTSKNQFSLKLSSVTAADTAVYYCARNYGSIYVNYFDYWGQGTLVTVSS VL: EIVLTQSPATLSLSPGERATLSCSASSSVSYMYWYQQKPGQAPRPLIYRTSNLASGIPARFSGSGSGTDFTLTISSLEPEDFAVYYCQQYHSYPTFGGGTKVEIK :: condition met
SA301a HC-H52I (antibody, name in Kabat numbering, V domains shown, IgG1 kappa) VH: QVQLQESGPGLVKPSQTLSLTCTVSGYSITSDYNSHWIRQPPGKGLEWIGYIIYSGSTNYNPSLKSRVTISRDTSKNQFSLKLSSVTAADTAVYYCARNYGSIYVNYFDYWGQGTLVTVSS VL: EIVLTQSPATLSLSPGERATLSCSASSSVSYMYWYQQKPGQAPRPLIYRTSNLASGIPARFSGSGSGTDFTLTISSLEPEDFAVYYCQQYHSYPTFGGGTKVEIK :: condition met
SA301a HC-Y50L (antibody, name in Kabat numbering, V domains shown, IgG1 kappa) VH: QVQLQESGPGLVKPSQTLSLTCTVSGYSITSDYNSHWIRQPPGKGLEWIGLIHYSGSTNYNPSLKSRVTISRDTSKNQFSLKLSSVTAADTAVYYCARNYGSIYVNYFDYWGQGTLVTVSS VL: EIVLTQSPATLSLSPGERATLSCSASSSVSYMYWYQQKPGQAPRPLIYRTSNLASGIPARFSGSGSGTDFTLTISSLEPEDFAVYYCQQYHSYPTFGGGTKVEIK :: condition not met
SA301a HC-S54G (antibody, name in Kabat numbering, V domains shown, IgG1 kappa) VH: QVQLQESGPGLVKPSQTLSLTCTVSGYSITSDYNSHWIRQPPGKGLEWIGYIHYGGSTNYNPSLKSRVTISRDTSKNQFSLKLSSVTAADTAVYYCARNYGSIYVNYFDYWGQGTLVTVSS VL: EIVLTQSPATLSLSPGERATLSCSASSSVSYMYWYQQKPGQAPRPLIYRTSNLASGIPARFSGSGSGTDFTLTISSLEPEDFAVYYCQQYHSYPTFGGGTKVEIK :: condition met

Note: attention shifts to another entry.
Determine whether this binder has pKd no lower than 9: SA301a HC-H52D (antibody, name in Kabat numbering, V domains shown, IgG1 kappa) VH: QVQLQESGPGLVKPSQTLSLTCTVSGYSITSDYNSHWIRQPPGKGLEWIGYIDYSGSTNYNPSLKSRVTISRDTSKNQFSLKLSSVTAADTAVYYCARNYGSIYVNYFDYWGQGTLVTVSS VL: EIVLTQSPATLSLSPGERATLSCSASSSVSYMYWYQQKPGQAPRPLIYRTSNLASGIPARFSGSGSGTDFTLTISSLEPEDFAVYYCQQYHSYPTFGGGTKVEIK
condition met
